I'd be grateful if you could share measured CC50 at 6 days for these entries.
- experiment-description: Single agent cytotoxicity, CellTiter-Glo
- Assay type: cell-based
- measurement-conditions: human, HepG2.2.15 cells

Suppose we examine the molecule Cc1cc2n(c1)S(=O)(=O)c1ccc(C(=O)NCC[C@H]3COCCO3)cc1NC2=O ; what CC50 at 6 days value has been reported?
> 1000 nM

Can you handle COCCCOc1cc2c(cc1OC)-c1cc(=O)c(C(=O)O)cn1[C@H](c1cccs1)O2 next?
> 50 nM

Now consider a different molecule.
Value lookup for CC50 at 6 days; key = COCCCOc1cc2c(cc1OC)-c1cc(=O)c(C(=O)O)cn1[C@H](C(C)(C)C)CO2
> 1000 nM
